Each recorded value in this set is attributed to paper PMC6478789.

Kindly supply the reported Kd values for the records listed here.
- tested-on: UniProtKB Q58F21
- method-summary: BROMOscan ligand-binding assay
- run-parameters: KD, BROMOscan Gene Symbol BRDT(1)
State just the number; it will be interpreted in µM.

Provide the reported Kd (system: UniProtKB Q58F21) for CCC(=O)N1CCOc2c(cc(-c3ccc(OC)c(OC)c3)cc2OCC2CCCN(C)C2)C1 (centres unmarked)
4.2

Provide the reported Kd (system: UniProtKB Q58F21) for `CCCOc1ccn2c(C(C)=O)cc(-c3ccccc3S(C)(=O)=O)c2c1`
30

====

- tested-on: UniProt Q92793
- Sequence (Q92793 1085-1192 limits assumed): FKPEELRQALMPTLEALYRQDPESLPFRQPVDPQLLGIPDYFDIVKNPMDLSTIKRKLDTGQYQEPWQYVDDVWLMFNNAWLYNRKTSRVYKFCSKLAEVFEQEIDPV
- method-summary: BROMOscan ligand-binding assay
- run-parameters: KD, CREBBP
pKd: −log10 of the molar value.
reported-metric: pKd

# return recorded pKd for entry O=C(O)c1ccccc1O [Salicylic Acid]
< 1.85

# return recorded pKd for entry CCC(=O)N1CCOc2c(cc(-c3ccc(OC)c(OC)c3)cc2OCC2CCCN(C)C2)C1 (stereo not drawn) [I-CBP112]
7.22

# return recorded pKd for entry O=C(C=CN1CC2CC1CN2c1ccccn1)c1ccccc1O (stereo not drawn) [PFI-3]
< 4.00

====

Kindly supply the reported Kd values for the records listed here.
- tested-on: PCAF (Homo sapiens, UniProt Q92831)
- Sequence (Q92831 723-827 limits assumed): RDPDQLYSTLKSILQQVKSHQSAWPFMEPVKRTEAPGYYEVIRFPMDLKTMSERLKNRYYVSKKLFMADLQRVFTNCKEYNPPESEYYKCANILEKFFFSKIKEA
- method-summary: BROMOscan ligand-binding assay
- run-parameters: KD (BROMOscan), sheet prints no unit (nM)

# return recorded Kd for entry O=C(C=CN1CC2CC1CN2c1ccccn1)c1ccccc1O (stereo not drawn) [PFI-3]
> 30000 nM

# return recorded Kd for entry CCCOc1ccn2c(C(C)=O)cc(-c3ccccc3S(C)(=O)=O)c2c1 [GSK2801]
> 30000 nM

# return recorded Kd for entry COc1ccc(CCc2nc3cc(-c4c(C)noc4C)ccc3n2C[C@H](C)N2CCOCC2)cc1Cl [SGC-CBP30]
> 30000 nM

====

Kindly supply the reported pKd values for the records listed here.
- tested-on: UniProtKB P25440
- method-summary: BROMOscan ligand-binding assay
API: returns pKd as number; meaning -log10 of concentration in mol/L.

# return recorded pKd for entry CCC(=O)N1CCOc2c(cc(-c3ccc(OC)c(OC)c3)cc2OCC2CCCN(C)C2)C1 (centres unmarked)
4.59

# return recorded pKd for entry `CCCOc1ccn2c(C(C)=O)cc(-c3ccccc3S(C)(=O)=O)c2c1`
4.66

# return recorded pKd for entry `COc1ccc(CCc2nc3cc(-c4c(C)noc4C)ccc3n2C[C@H](C)N2CCOCC2)cc1Cl`
5.62

====

- tested-on: UniProtKB P25440
- method-summary: BROMOscan ligand-binding assay
- run-parameters: BROMOscan, BRD2(1)
pKd: −log10 of the molar value.
reported-metric: pKd

Provide the reported pKd (system: UniProtKB P25440) for O=C(C=CN1[C@H]2CC[C@@H]1c1ncnc(NC3CC3)c1C2)c1ccccc1O [PFI-3 D1]
< 4.52

====

- tested-on: PBRM1(2) (Homo sapiens, UniProt Q86U86)
- Sequence (Q86U86 177-287 limits assumed): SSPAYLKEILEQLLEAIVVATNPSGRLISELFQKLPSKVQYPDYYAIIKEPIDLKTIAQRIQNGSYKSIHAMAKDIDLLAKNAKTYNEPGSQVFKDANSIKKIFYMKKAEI
- method-summary: BROMOscan ligand-binding assay
- run-parameters: BROMOscan, PBRM1(2)
reported-metric: pKd
API: returns pKd as number; meaning -log10 of concentration in mol/L.

# return recorded pKd for entry O=C(C=CN1[C@H]2CC[C@@H]1c1ncnc(NC3CC3)c1C2)c1ccccc1O [PFI-3 D1]
6.77

====

Kindly supply the reported activity at 10 µM values for the records listed here.
- tested-on: GCN5L2 (Homo sapiens, UniProt Q92830)
- Sequence (Q92830 whole entry, species assumed): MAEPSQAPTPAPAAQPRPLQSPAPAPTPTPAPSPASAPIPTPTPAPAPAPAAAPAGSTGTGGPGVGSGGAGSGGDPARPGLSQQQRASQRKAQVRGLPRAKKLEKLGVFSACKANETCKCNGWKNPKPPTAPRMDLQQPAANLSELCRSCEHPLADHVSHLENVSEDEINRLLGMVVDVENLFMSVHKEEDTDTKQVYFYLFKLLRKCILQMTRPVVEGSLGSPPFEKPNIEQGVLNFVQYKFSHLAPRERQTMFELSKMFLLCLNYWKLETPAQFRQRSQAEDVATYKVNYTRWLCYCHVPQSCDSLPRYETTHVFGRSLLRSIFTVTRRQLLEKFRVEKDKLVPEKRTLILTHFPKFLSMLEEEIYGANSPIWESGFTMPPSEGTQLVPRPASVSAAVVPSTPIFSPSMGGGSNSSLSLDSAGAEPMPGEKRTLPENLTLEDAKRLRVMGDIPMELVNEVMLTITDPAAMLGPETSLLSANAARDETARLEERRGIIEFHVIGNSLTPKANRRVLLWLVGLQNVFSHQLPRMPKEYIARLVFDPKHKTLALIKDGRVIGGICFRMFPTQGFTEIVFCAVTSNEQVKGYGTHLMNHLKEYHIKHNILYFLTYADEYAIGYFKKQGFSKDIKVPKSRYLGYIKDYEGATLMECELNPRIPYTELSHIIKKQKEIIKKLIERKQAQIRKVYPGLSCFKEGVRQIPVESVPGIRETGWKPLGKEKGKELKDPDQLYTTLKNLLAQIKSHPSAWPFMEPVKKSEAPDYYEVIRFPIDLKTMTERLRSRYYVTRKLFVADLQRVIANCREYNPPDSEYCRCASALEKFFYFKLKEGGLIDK
- method-summary: Histone acetyltransferase (HAT) activity assay;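 further: selectivity screen of BRD probe compounds across a panel of histone acetyltransferases, HAT activity in % with compound at 1 or 10 µM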
- Format: biochemical
- run-parameters: 10µM; read-out: HATs Activity (%)
The reply should consist of the numeric value with the unit placed after it.

# return recorded activity at 10 µM for entry `COc1cc(Cl)c(C(=O)N[C@@H](CN[C@H]2CC[C@@H](N)CC2)Cc2ccc(C#N)cc2)cc1-c1ccc(CN[C@H](C)c2ccc(C)cc2)o1`
102%

# return recorded activity at 10 µM for entry CCC(=O)N1CCOc2c(cc(-c3ccc(OC)c(OC)c3)cc2OCC2CCCN(C)C2)C1 (stereo not shown)
102%

# return recorded activity at 10 µM for entry `CO[C@H]1CNC[C@@H](OCC2CCC(F)(F)CC2)[C@@H]1Nc1ncc(-c2cncc(C)c2)c2cc(C)c(=O)[nH]c12`
100%

# return recorded activity at 10 µM for entry `Cc1c(NC(=O)c2cc(C(N)=O)nc3cc(F)ccc23)c(C(F)(F)F)nn1Cc1ccc(C#N)cc1`
97%

====

- tested-on: SETD7 (Homo sapiens, UniProt Q8WTS6)
- Construct: purchased DiscoverX BROMOscan (bromodomains); SGC in-house methyltransferase panel
- Sequence (Q8WTS6 whole entry): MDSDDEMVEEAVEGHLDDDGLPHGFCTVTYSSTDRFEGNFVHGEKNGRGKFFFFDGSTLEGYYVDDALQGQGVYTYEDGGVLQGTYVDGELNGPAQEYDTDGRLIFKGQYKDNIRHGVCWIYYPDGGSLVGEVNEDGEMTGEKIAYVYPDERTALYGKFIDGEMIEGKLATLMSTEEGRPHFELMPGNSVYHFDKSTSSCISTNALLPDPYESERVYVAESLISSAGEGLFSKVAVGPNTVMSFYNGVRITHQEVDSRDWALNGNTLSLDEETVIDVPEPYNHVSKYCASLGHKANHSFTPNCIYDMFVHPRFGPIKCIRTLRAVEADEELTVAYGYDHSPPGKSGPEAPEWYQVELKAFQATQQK
- method-summary: Methyl transferase scintillation proximity assay
- Type: biochemical
- run-parameters: average of two measurements, read-out: MTases Inhibition (%)
Kindly supply the reported inhibition at 10 µM values for the records listed here.
State just the number; it will be interpreted in %.

Provide the reported inhibition at 10 µM (system: SETD7 (Homo sapiens, UniProt Q8WTS6)) for `CN(C)CCCOc1ccc(-c2cc(NCCCn3cccn3)nc(S(C)(=O)=O)n2)cc1`
-1

Provide the reported inhibition at 10 µM (system: SETD7 (Homo sapiens, UniProt Q8WTS6)) for `CN1C[C@H](Nc2cnn(C)c(=O)c2Br)C[C@H](c2ccccc2)C1`
12

Provide the reported inhibition at 10 µM (system: SETD7 (Homo sapiens, UniProt Q8WTS6)) for `CO[C@H]1CNC[C@@H](OCC2CCC(F)(F)CC2)[C@@H]1Nc1ncc(-c2cncc(C)c2)c2cc(C)c(=O)[nH]c12`
7

Provide the reported inhibition at 10 µM (system: SETD7 (Homo sapiens, UniProt Q8WTS6)) for `Cc1c(NC(=O)c2cc(C(N)=O)nc3cc(F)ccc23)c(C(F)(F)F)nn1Cc1ccc(C(C)(C)C)cc1`
10

Provide the reported inhibition at 10 µM (system: SETD7 (Homo sapiens, UniProt Q8WTS6)) for `Cc1c(NC(=O)c2cc(C(N)=O)nc3cc(F)ccc23)c(C(F)(F)F)nn1Cc1ccc(C#N)cc1`
10

Provide the reported inhibition at 10 µM (system: SETD7 (Homo sapiens, UniProt Q8WTS6)) for `COc1cc(Cl)c(C(=O)N[C@@H](CN[C@H]2CC[C@@H](N)CC2)Cc2ccc(C#N)cc2)cc1-c1ccc(CN[C@H](C)c2ccc(C)cc2)o1`
11

Provide the reported inhibition at 10 µM (system: SETD7 (Homo sapiens, UniProt Q8WTS6)) for `Cc1nnc2c3ccccc3c(N[C@@H](C)[C@H](c3ccccc3)N(C)C)nn12`
7

====

- tested-on: PBRM1(5) (Homo sapiens, UniProt Q86U86)
- Sequence (Q86U86 653-763 limits assumed): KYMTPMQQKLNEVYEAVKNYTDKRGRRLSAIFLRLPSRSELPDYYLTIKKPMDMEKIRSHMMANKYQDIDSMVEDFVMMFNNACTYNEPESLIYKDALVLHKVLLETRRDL
- method-summary: BROMOscan ligand-binding assay
reported-metric: Kd

# return recorded Kd for entry CCCS(=O)(=O)c1nc(NC2CC2)cc(-c2ccc3c(ccn3C3CC(C)(C)NC(C)(C)C3)c2)n1 [NVS-CECR2-1]
> 30 µM

====

- tested-on: BAZ2B (Homo sapiens)
- Sequence (Q9UIF8 2060-2164 limits assumed): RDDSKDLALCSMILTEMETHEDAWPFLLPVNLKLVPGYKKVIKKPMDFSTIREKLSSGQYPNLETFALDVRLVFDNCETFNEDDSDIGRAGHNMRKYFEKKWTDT
- method-summary: BROMOscan ligand-binding assay
- run-parameters: KD, BROMOscan Gene Symbol BAZ2B
reported-metric: Kd (µM)
State just the number; it will be interpreted in µM.

# return recorded Kd for entry CCOC(=O)Nc1cc(-c2ccc(C)c(NS(C)(=O)=O)c2)nn2c(C)nnc12 [Bromosporine]
9.1

# return recorded Kd for entry CCC(=O)N1CCOc2c(cc(-c3ccc(OC)c(OC)c3)cc2OCC2CCCN(C)C2)C1 (centres unmarked) [I-CBP112]
28

====

- tested-on: NSD2 (Homo sapiens, UniProt O96028)
- Construct: purchased DiscoverX BROMOscan (bromodomains); SGC in-house methyltransferase panel
- Sequence (O96028 whole entry): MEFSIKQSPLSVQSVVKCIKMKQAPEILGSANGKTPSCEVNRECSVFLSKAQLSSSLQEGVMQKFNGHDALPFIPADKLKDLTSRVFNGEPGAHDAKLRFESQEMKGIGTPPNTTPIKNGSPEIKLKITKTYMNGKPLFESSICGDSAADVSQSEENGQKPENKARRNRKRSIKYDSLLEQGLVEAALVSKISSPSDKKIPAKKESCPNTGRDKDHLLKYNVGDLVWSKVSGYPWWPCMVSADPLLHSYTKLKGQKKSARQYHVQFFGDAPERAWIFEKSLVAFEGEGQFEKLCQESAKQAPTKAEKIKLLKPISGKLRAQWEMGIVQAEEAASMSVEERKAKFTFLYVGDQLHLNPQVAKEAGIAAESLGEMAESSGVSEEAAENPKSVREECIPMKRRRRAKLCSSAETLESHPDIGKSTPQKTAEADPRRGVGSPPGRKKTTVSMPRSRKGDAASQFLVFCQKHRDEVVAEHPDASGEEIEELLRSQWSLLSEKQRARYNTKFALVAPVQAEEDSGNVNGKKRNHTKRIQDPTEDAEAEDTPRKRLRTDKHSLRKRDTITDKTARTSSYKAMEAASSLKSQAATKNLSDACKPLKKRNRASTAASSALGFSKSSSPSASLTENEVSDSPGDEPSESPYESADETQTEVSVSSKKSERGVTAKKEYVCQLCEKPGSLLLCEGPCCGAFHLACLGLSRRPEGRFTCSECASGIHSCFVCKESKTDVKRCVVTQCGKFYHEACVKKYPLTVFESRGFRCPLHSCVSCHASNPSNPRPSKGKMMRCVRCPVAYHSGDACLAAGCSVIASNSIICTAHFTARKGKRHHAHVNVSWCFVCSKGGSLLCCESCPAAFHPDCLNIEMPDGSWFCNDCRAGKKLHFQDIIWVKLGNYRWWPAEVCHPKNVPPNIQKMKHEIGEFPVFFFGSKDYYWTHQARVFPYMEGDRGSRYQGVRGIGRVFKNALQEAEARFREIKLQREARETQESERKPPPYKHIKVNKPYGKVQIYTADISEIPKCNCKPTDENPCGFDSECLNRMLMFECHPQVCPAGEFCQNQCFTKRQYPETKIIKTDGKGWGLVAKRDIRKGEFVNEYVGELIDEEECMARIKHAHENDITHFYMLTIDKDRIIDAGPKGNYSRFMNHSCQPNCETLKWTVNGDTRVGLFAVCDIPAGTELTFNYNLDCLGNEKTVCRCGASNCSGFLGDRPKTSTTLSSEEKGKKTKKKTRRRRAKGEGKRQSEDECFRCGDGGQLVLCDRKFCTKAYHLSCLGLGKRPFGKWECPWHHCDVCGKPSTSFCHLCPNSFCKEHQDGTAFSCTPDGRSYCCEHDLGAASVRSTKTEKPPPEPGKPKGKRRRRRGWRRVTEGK
- method-summary: Methyl transferase scintillation proximity assay
- Format: biochemical
- run-parameters: average of two measurements, read-out: MTases Inhibition (%)
reported-metric: inhibition at 10 µM (%)
State just the number; it will be interpreted in %.

# return recorded inhibition at 10 µM for entry Cc1c(NC(=O)c2cc(C(N)=O)nc3cc(F)ccc23)c(C(F)(F)F)nn1Cc1ccc(C#N)cc1 [BAY-876]
0

# return recorded inhibition at 10 µM for entry COc1cc(Cl)c(C(=O)N[C@@H](CN[C@H]2CC[C@@H](N)CC2)Cc2ccc(C#N)cc2)cc1-c1ccc(CN[C@H](C)c2ccc(C)cc2)o1 [BAY-850]
-1

# return recorded inhibition at 10 µM for entry CN(C)CCCOc1ccc(-c2cc(NCCCn3cccn3)nc(S(C)(=O)=O)n2)cc1 [TP-238]
3

====

- tested-on: BRD2(1,2) (Homo sapiens)
- Sequence (P25440 71-455 limits assumed): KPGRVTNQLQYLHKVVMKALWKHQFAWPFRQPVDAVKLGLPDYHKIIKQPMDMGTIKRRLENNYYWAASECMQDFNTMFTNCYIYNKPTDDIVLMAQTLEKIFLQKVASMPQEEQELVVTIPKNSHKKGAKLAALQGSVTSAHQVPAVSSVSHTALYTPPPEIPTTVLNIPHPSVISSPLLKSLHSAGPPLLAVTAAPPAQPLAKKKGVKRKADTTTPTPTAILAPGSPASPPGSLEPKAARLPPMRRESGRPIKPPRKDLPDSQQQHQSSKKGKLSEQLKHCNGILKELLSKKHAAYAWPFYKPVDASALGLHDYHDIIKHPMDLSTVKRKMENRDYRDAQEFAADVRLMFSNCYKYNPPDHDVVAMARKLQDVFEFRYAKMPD
- method-summary: BROMOscan ligand-binding assay
- run-parameters: BRD2(1,2)
reported-metric: Kd (µM)
State just the number; it will be interpreted in µM.

Provide the reported Kd (system: BRD2(1,2) (Homo sapiens)) for COc1cc(C#N)ccc1S(=O)(=O)Nc1ccc2c(c1)cc(C)c(=O)n2C [NI 57]
12

Provide the reported Kd (system: BRD2(1,2) (Homo sapiens)) for COc1cc2c(cc1NS(=O)(=O)c1ccc(Br)cc1C)n(C)c(=O)n2C [OF-1]
5.6
